Origin of values: patent US9090593B2

assay.target: full length recombinant Pim-3 protein (Homo sapiens, UniProt Q86V86)
Construct: by full length recombinant Pim-1, Pim-2, or Pim-3 protein
procedure.summary: Pim-3 enzyme assay (HTRF, phosphorylation of biotinylated-BAD (S112) peptide)
condition.parameters: read-out: Pim3 IC50
Text: Pim-3 was purchased from Millipore (UK). The phosphorylation of biotinylated-BAD (S112) peptide by full length recombinant Pim-1, Pim-2, or Pim-3 protein was detected with streptavidin:Allophycocyanin (APC) conjugate and a europium (Eu) labeled antibody directed against phosphorylated-BAD (S112). […] The fluorescence is directly proportional to the amount of phosphorylated BAD peptide present in the reaction. […]
Give measured pIC50 for each item. Keep answers brief.
# log scale: pIC50 equals minus log10 of the concentration in mol/L

Form field pIC50, entry Nc1ncc(-c2ccc3[nH]nc(-c4cncc(N5CCC(N)CC5)n4)c3c2)c(NC2CCCC2)n1 : 5.95

Form field pIC50, entry CCN(CC)C(=O)c1cccc(-c2ccc3[nH]nc(-c4cncc(N5CCC(N)CC5)n4)c3c2)c1F : 7.37

Form field pIC50, entry NC1CCN(c2cncc(-c3n[nH]c4ccc(-c5ccnc6cc(F)ccc56)cc34)n2)CC1 : 7.64

Form field pIC50, entry CCN(CC)C(=O)c1ccc(F)c(-c2ccc3[nH]nc(-c4cncc(N5CCC(N)CC5)n4)c3c2)c1 : 7.66

###

assay.target: Pim-1 stably transfected into the U2OS human osteogenic sarcoma line (Homo sapiens, UniProt P11309)
Construct: expressed in transfected cells; host or cells: U2OS human osteogenic sarcoma line
Sequence (P11309 whole entry): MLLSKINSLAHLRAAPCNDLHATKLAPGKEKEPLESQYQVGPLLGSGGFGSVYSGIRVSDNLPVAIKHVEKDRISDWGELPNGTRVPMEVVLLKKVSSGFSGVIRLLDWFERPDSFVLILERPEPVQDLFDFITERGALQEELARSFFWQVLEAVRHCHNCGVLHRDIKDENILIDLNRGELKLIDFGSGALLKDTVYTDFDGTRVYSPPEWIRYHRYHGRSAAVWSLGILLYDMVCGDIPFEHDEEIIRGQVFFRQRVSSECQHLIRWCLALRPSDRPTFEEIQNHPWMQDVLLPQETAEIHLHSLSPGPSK
procedure.summary: Pim cell assay, phospho-BAD normalized against total BAD, U2OS stably transfected with Pim-1
Assay type: cell-based
condition.parameters: U2OS cells stably transfected with Pim-1, phospho-BAD; high dose […]; read-out: Pim1_Cell_IC50
Procedure: The cell lines used in the assay were generated by the stable transfection of either Pim-1 or Pim-2 into the U2OS human osteogenic sarcoma line. […] These prepared lysates were then assayed for phospho and total BAD according to the manufacturer's protocols (Meso Scale Diagnostics, Cat# K15103C-3 & # K15103D-3). The plates were read on the MSD Sector Imager 6000, and results were calculated according to the assay protocols ((% Phosphoprotein=((2×Phospho signal)/(Phospho signal+Total signal))×100)).
property.measured: pIC50
# log scale: pIC50 equals minus log10 of the concentration in mol/L

Form field pIC50, entry NC1CCN(c2cncc(-c3n[nH]c4ccc(-c5ccc6nccnc6c5)cc34)n2)CC1 [Example 56] : 6.89

Form field pIC50, entry COc1cncc(-c2ccc3[nH]nc(-c4cncc(O[C@@H]5CCCNC5)n4)c3c2)c1 [Example 114] : 6.76

Form field pIC50, entry Fc1cncc(-c2ccc3[nH]nc(-c4cncc(O[C@@H]5CCCNC5)n4)c3c2)c1 [Example 115] : 6.02

Form field pIC50, entry NC1CCN(c2cncc(-c3n[nH]c4ccc(-c5cc(C(=O)NC6CC6)ccc5F)cc34)n2)CC1 [Example 3] : 5.43

Form field pIC50, entry CC(C)(C)Nc1cncc(-c2n[nH]c3ccc(-c4c(F)cccc4F)cc23)n1 [Example 183] : 5.37

Form field pIC50, entry N#Cc1cccc(-c2ccc3[nH]nc(-c4cncc(N5CCC(N)CC5)n4)c3c2)c1 [Example 62] : 6.22

Form field pIC50, entry Nc1cnnc(-c2ccc3[nH]nc(-c4cncc(N5CCC(N)CC5)n4)c3c2)c1 [Example 104] : 5.72

###

Give measured pIC50 for each item. Keep answers brief.
assay.target: full length recombinant Pim-1 protein (Homo sapiens)
Construct: by full length recombinant Pim-1, Pim-2, or Pim-3 protein; hexahistidine tag followed by a thrombin cleavage site (N); made in house; host or cells: Sf9 (baculovirus) or E. coli (pET28)
procedure.summary: Pim-1 enzyme assay (HTRF, phosphorylation of biotinylated-BAD (S112) peptide)
Type: biochemical
condition.parameters: read-out: Pim_1_IC50
# log scale: pIC50 equals minus log10 of the concentration in mol/L

Form field pIC50, entry CC[C@@H]1CCNC[C@H]1Oc1cncc(-c2n[nH]c3ccc(-c4c(F)cccc4F)cc23)n1 : 7.70

Form field pIC50, entry CC(C)Oc1cncc(-c2ccc3[nH]cc(-c4nnc(NC5CCNCC5)o4)c3c2)n1 : 7.32

Form field pIC50, entry Fc1cccc(F)c1-c1ccc2[nH]cc(-c3cncc(OC4CNCCC45CC5)n3)c2c1 (single isomer, unassigned) [Example 438] : 9.00

Form field pIC50, entry CC(C)Oc1cncc(-c2ccc3[nH]cc(-c4nnc(N[C@H]5CCNC5)o4)c3c2)n1 : 7.01

Form field pIC50, entry NC1CCN(c2cc(O)nc(-c3n[nH]c4ccc(-c5c(F)cccc5F)cc34)n2)CC1 : 9.00

Form field pIC50, entry COc1cc(C#N)cc(-c2ccc3[nH]cc(-c4cncc(O[C@@H]5CCCNC5)n4)c3c2)c1OC(C)C : 6.08

Form field pIC50, entry c1cc2[nH]nc(-c3cncc(O[C@H]4CNCCC45CC5)n3)c2cc1C1CCC1 : 8.40

###

assay.target: full length recombinant Pim-1 protein (Homo sapiens, UniProt P11309)
Construct: by full length recombinant Pim-1, Pim-2, or Pim-3 protein; hexahistidine tag followed by a thrombin cleavage site (N); made in house; host or cells: Sf9 (baculovirus) or E. coli (pET28)
procedure.summary: Pim-1 enzyme assay (HTRF, phosphorylation of biotinylated-BAD (S112) peptide)
Format: biochemical
condition.parameters: enzyme assay, Pim-1; read-out: Pim_1_IC50
property.measured: IC50

Form field IC50, entry O=C(NC1CC1)c1cccc(-c2ccc3[nH]nc(-c4cncc(O[C@@H]5CCCNC5)n4)c3c2)c1 [Example 132] : 8 nM

Form field IC50, entry CC(C)Nc1cncc(-c2n[nH]c3ccc(-c4c(F)cccc4F)cc23)n1 [Example 182] : 40 nM

Form field IC50, entry C(=C\C1CC1)/c1ccc2[nH]nc(-c3cncc(O[C@@H]4CCCNC4)n3)c2c1 [Example 147] : 7 nM

Form field IC50, entry Fc1ccccc1-c1ccc2[nH]nc(-c3cncc(O[C@@H]4CCCNC4)n3)c2c1 [Example 133] : 5 nM

###

assay.target: Pim-1 stably transfected into the U2OS human osteogenic sarcoma line (Homo sapiens)
Construct: expressed in transfected cells; host or cells: U2OS human osteogenic sarcoma line
procedure.summary: Pim cell assay, phospho-BAD normalized against total BAD, U2OS stably transfected with Pim-1
Assay type: cell-based
condition.parameters: U2OS cells stably transfected with Pim-1, phospho-BAD; high dose […]; read-out: Pim1_Cell_IC50
Give measured pIC50 for each item. Keep answers brief.
# log scale: pIC50 equals minus log10 of the concentration in mol/L

Form field pIC50, entry NC1CCN(c2cncc(-c3n[nH]c4ccc(-c5cnc6[nH]nc(C(F)(F)F)c6c5)cc34)n2)CC1 : 5.73

Form field pIC50, entry Fc1cccc(F)c1-c1ccc2[nH]nc(-c3ccnc(O[C@@H]4CCCNC4)n3)c2c1 : 5.91

Form field pIC50, entry COc1cccc(-c2ccc3[nH]nc(-c4cncc(O[C@@H]5CCCNC5)n4)c3c2)c1F : 6.82

Form field pIC50, entry CN(c1cncc(-c2n[nH]c3ccc(-c4c(F)cccc4F)cc23)n1)C1CCNCC1 : 6.37

###

assay.target: Pim-2 stably transfected into the U2OS human osteogenic sarcoma line (Homo sapiens)
Construct: expressed in transfected cells; host or cells: U2OS human osteogenic sarcoma line
Sequence (Q9P1W9 whole entry): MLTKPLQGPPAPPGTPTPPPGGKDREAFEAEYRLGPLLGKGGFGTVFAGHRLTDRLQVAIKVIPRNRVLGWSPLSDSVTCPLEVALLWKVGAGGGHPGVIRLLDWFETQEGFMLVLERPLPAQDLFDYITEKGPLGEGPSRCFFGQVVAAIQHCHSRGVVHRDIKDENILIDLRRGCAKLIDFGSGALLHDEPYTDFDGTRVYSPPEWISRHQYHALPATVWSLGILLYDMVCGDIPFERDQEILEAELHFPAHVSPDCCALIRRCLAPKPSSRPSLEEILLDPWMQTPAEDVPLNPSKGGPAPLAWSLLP
procedure.summary: Pim cell assay, phospho-BAD normalized against total BAD, U2OS stably transfected with Pim-2
Type: cell-based
condition.parameters: U2OS stably transfected with Pim-2; phospho-BAD normalized against total BAD; 29 min incubation; read-out: Pim2_Cell_IC50_
pIC50: −log10 of the molar value.
pIC50 vs 5: at or above is label 1, below is label 0.

Determine whether this molecule has pIC50 no lower than 5: CC1(C)CNCCC1Oc1cncc(-c2n[nH]c3ccc(-c4c(F)cccc4F)cc23)n1 (single isomer, unassigned) [Example 433]
label 0

Determine whether this molecule has pIC50 no lower than 5: OCc1ccc(-c2ccc3[nH]cc(-c4cncc(O[C@@H]5CCCNC5)n4)c3c2)cc1
label 1

Determine whether this molecule has pIC50 no lower than 5: c1cc2[nH]nc(-c3cncc(NC4CCNCC4)n3)c2cc1-c1cncc(C2CC2)n1
label 1

Determine whether this molecule has pIC50 no lower than 5: CC(C)OC(=O)c1ccc2[nH]nc(-c3cncc(N[C@@H]4CCCNC4)n3)c2c1
label 0

Determine whether this molecule has pIC50 no lower than 5: Oc1cc(N[C@@H]2CCCNC2)nc(-c2c[nH]c3ccc(-c4c(F)cccc4F)cc23)n1
label 0

Determine whether this molecule has pIC50 no lower than 5: COC(=O)c1ccc2[nH]nc(-c3cncc(N4CCC(N)CC4)n3)c2c1
label 1

Determine whether this molecule has pIC50 no lower than 5: N#Cc1ncccc1-c1ccc2[nH]cc(-c3cncc(O[C@@H]4CCCNC4)n3)c2c1
label 0

Determine whether this molecule has pIC50 no lower than 5: Cc1ccccc1-c1ccc2[nH]nc(-c3cncc(O[C@H]4CNCCC45CC5)n3)c2c1
label 0

Determine whether this molecule has pIC50 no lower than 5: COc1ccc(-c2ccc3[nH]cc(-c4cncc(O[C@@H]5CCCNC5)n4)c3c2)cc1
label 0
